Biological target: T1, RASAL2 (peptide code RASAL2-002) peptide on HLA-A*02:01 (human)
T1 peptide: SVLEPVISV
Assay: cytokine release
metric-name: binding result

[[record]]
binder = "R26P1A9 (TCR, V domains shown) Valpha: SQQGEEDPQALSIQEGENATMNCSYKTSINNLQWYRQNSGRGLVHLILIRSNEREKHSGRLRVTLDTSKKSSSLLITASRAADTASYFCLIGASGSRLTFGEGTQLTVNP Vbeta: DAGVIQSPRHEVTEMGQEVTLRCKPISGHDYLFWYRQTMMRGLELLIYFNNNVPIDDSGMPEDRFSAKMPNASFSTLKIQPSEPRDSAVYFCASSYFGWNEKLFFGSGTQLSVL"
result = "no recognition"

[[record]]
binder = "R59P2E7 (TCR, V domains shown) Valpha: KQEVTQIPAALSVPEGENLVLNCSFTDSAIYNLQWFRQDPGKGLTSLLLIQSSQREQTSGRLNASLDKSSGRSTLYIAASQPGDSATYLCAVNSDYKLSFGAGTTVTVRA Vbeta: AAGVIQSPRHLIKEKRETATLKCYPIPRHDTVYWYQQGPGQDPQFLISFYEKMQSDKGSIPDRFSAQQFSDYHSELNMSSLELGDSALYFCASSLGLGTGDYGYTFGSGTRLTVV"
result = "no recognition"

[[record]]
binder = "R26P3H1 (TCR, V domains shown) Valpha: AQSVAQPEDQVNVAEGNPLTVKCTYSVSGNPYLFWYVQYPNRGLQFLLKYITGDNLVKGSYGFEAEFNKSQTSFHLKKPSALVSDSALYFCAVRDMNRDDKIIFGKGTRLHILP Vbeta: DGGITQSPKYLFRKEGQNVTLSCEQNLNHDAMYWYRQDPGQGLRLIYYSQIVNDFQKGDIAEGYSVSREKKESFPLTVTSAQKNPTAFYLCASSRAEGGEQYFGPGTRLTVT"
result = "no recognition"


Reference for the values: patent US20190321478A1
